Biological target: T1, recombinant HIS-tagged cyno nectin-4 (Acro Biosystems Cat. No. NE4-C52H4) (cyno, UniProt A0A2K5WES1 32-349)
T1 construct: Bought protein; HIS tag not described
T1 sequence: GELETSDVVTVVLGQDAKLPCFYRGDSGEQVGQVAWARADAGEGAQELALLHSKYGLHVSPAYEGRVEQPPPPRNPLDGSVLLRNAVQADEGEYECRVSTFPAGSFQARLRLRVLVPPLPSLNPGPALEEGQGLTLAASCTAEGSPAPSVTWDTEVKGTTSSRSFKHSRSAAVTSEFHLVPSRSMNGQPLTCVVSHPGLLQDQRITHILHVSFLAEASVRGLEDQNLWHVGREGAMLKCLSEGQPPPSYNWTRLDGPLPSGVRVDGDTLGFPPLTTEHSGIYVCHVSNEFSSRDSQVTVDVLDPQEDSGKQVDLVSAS
Assay: SPR Biacore 8K+, ADC captured via anti-human Fc, nectin-4 analyte, 37 C;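 further: Nectin-4 injected over captured ADC at 0 to 600 nM for 2 min association, then 10 min dissociation, with a reference flow cell lacking ADC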
Kindly supply the reported pKd values for the records listed here.
Answers are plain numbers, as −log10 of the molar value.

BINDER: Ab7 ADC (Ab7 conjugated as in Formula XI, DAR of 8) (antibody, human IgG1, lambda, L234A L235A, V domains shown, camptothecin analog linker-payload of Formula XI on cysteine thiols after full reduction, DAR of 8 per antibody; positions not given, Antibody-drug conjugate of Ab7; also called Ab7 (ADC column)) VH: QVQLVQSGAEVKKPGASVKVSCKASGYTFTNYYMHWVRQAPGQGLEWMGIINPSSGSASYAQKFQGRVTMTRDTSTSTVYMELSSLRSEDTAVYYCAREGVGRDILQAFDIWGQGTLVTVSS VL: QSVLTQPPSVSEAPRQRVTISCSGSSSNIGNNAVNWYQQLPGKAPKLLIYYDDLLPSGVSDRFSGSKSGTSASLAISGLQSEDEADYYCAAWDDSLNGHVFGGGTKLTVLG
pKd: 7.41

Now for another entry.
Query :: Value lookup for pKd; key = Ab5 ADC (Ab5 conjugated as in Formula XI, DAR of 8) (antibody, human IgG1, kappa, L234A L235A, V domains shown, camptothecin analog linker-payload of Formula XI on cysteine thiols after full reduction, DAR of 8 per antibody; positions not given, Antibody-drug conjugate of Ab5; also called Ab5 (ADC column)) VH: QVQLVQSGAEVKKPGASVKVSCKASGYTFTSYYVHWVRQAPGQGLEWMGIINPSIISTSYAQKFQARVTMTRDTSTSTVYMELSSLRSEDTAVYYCARGLNFDAFDIWGQGTLVTVSS VL: DIQLTQSPSFLSASVGDRVTITCRASQGISSYLAWYQQKPGKAPKLLIYAASTLQSGVPSRFSGSGSGTEFTLTISSLQPEDFATYYCQQLNNYPFTFGQGTKVEIKR
Result :: 8.51

Provenance of the data: patent US20250000991A1
